These data points were gathered from PubChem BioAssay AID179.

- System: CEM cells HIV-1 protection, formazan growth assay
- Experimental details: NCI AIDS Antiviral Assay
Active and inactive are the calls of the source.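 How the source made its calls: active means compounds giving half or more protection of infected cells from virus-caused growth loss, again on retest; inactive means the rest.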
Property: outcome

Past entries and their recorded results:
Molecule	Assay target	Measured result
Cc1cc(C)c(-c2noc(-c3ccc(Cl)cc3)c2C2=NCCN2)c(C)c1	CEM cells HIV-1 protection, formazan growth assay	inactive
COc1nc(NC2OC(CO)C(O)C(O)C2O)cc(=O)[nH]1 (stereo not given)	CEM cells HIV-1 protection, formazan growth assay	inactive
CN(C)C=O.CN(C)C=O.CN1C(C(=O)Nc2ccccn2)=C([O-])c2ccccc2S1(=O)=O.CN1C(C(=O)Nc2ccccn2)=C([O-])c2ccccc2S1(=O)=O.[Cu+2]	CEM cells HIV-1 protection, formazan growth assay	inactive
COc1ccc(C(O)C(=O)c2nc3ccc(Cl)cc3[nH]c2=O)cc1 (stereo not given)	CEM cells HIV-1 protection, formazan growth assay	inactive
O=C1CC(c2cccc(Br)c2)n2cccc21 (stereo not given)	CEM cells HIV-1 protection, formazan growth assay	inactive

Would you be so kind as to report outcome for each listed record?
1. O=c1cc(Nc2cccc(O)c2)[nH]c(=O)[nH]1
2. CCOC(=O)COc1cccc2c1C(=O)CCO2
3. COc1ccc2cc1Oc1ccc(cc1)CC1c3cc(c(OC)cc3CCN1C)Oc1c3c(cc4c1C(C2)N(C)CC4)OCO3 (stereo not given)
4. O=C(Cn1ccnc1[N+](=O)[O-])NCc1ccccc1
5. COC(=O)/C=C/C(=O)C1C(C(=O)OC)C2(C(=O)OC)CCC1(C(=O)OC)N2 (stereo not given)
6. O=C1O[C@H]2CCC3=CC[C@@H](c4ccccc4)C=C1[C@H]32
7. CCOC(=O)C(Cc1cc(OC)c(CC(C(=O)OCC)C(=O)OCC)cc1OC)C(=O)OCC
8. c1ccc(-c2onc3c2CCCC3)cc1

(A)
inactive
inactive
inactive
inactive
inactive
inactive
inactive
inactive
